Tested on: VERO 76 cells
ASSAY READOUT: CC50 (µM)

In [3]: df
Out[3]:
                                   compound  recorded_value
0  O=P(O)(O)OC1CC(n2cnc3c(Cl)ncnc32)C2ON=C(c3c4ccccc4c(Br)c4ccccc34)C12 (stereo not shown)            93.7
